Readings of inhibition for the listed compounds
# Experiment Notes: TLR3 IRF3 reporter activation blockers – cell-based, poly I:C stimulus, luciferase, 10K MLSCN set, primary screen (AID 602277)
# Conditions Used: HEK293-TLR3 RL24 IRF3 luciferase reporter, at 10 µM, stronger effect = higher value
Endpoint: inhibition (%)

{"Compound": "CC(C)CC(=O)N1CCN(S(=O)(=O)c2ccc(F)cc2)CC1", "Endpoint": "inhibition", "Meas Value": -11.7}
{"Compound": "CC(C(=O)c1ccccc1)n1cnc2ccccc2c1=O (centres undefined)", "Endpoint": "inhibition", "Meas Value": 10.7}
{"Compound": "NC(=O)CSc1nnc(-c2ccc(O)cc2)n1Cc1ccco1", "Endpoint": "inhibition", "Meas Value": 19.8}
{"Compound": "COCCN(CCOC)C(=O)CCn1c(=O)oc2ccccc21", "Endpoint": "inhibition", "Meas Value": 8.78}
{"Compound": "COC(=O)CCCCC(=O)C1C(=O)CC(C)(C)C(C(=O)OC)C1=O (centres undefined)", "Endpoint": "inhibition", "Meas Value": 3.35}
{"Compound": "CCOc1ccc(C2CC(c3ccccc3C)n3nc(N)nc3N2)cc1 (centres undefined)", "Endpoint": "inhibition", "Meas Value": 25}
{"Compound": "CCN1CCN(C(=O)c2cn(CCOC)c(=O)c3c2c2ccccc2n3C)CC1", "Endpoint": "inhibition", "Meas Value": 14.5}
{"Compound": "COc1ccc(-c2cc(C(=O)Nc3ccc(C)cc3)no2)cc1", "Endpoint": "inhibition", "Meas Value": -32.3}
{"Compound": "CCOC(=O)c1cc(-c2ccccc2)sc1N", "Endpoint": "inhibition", "Meas Value": -102}
{"Compound": "CCOC(=O)c1cc(-c2nnc(-c3ccc(Oc4ccccc4)cc3)o2)c(C)nc1C", "Endpoint": "inhibition", "Meas Value": 12.2}
{"Compound": "CSc1nc(N2CCOCC2)c2ccccc2n1", "Endpoint": "inhibition", "Meas Value": -10.5}
{"Compound": "CN(C)C=Nc1nonc1N", "Endpoint": "inhibition", "Meas Value": 21}
{"Compound": "COc1ccccc1OCCNC(=O)c1cccs1", "Endpoint": "inhibition", "Meas Value": -43}
{"Compound": "Cc1ccccc1Cn1c(=O)c2c(nc3n2CCCN3Cc2ccccc2)n(C)c1=O", "Endpoint": "inhibition", "Meas Value": 19.5}
{"Compound": "COCCNC(=O)c1cc2c(-c3ccccc3F)nn(C)c2s1", "Endpoint": "inhibition", "Meas Value": -0.79}
{"Compound": "COc1ccc(C(NC(C)=O)c2ccc3cccnc3c2O)c(OC)c1 (centres undefined)", "Endpoint": "inhibition", "Meas Value": 61.9}
{"Compound": "O=C(Nc1ccc2c(c1)OCO2)c1nn(-c2ccccc2)c(=O)c2ccccc12", "Endpoint": "inhibition", "Meas Value": 11.4}
{"Compound": "O=C1c2ccccc2NC(c2cccc(F)c2)N1Cc1ccco1 (centres undefined)", "Endpoint": "inhibition", "Meas Value": 17.8}
{"Compound": "COc1cc(OC)cc(-n2nnnc2SCC(=O)N2CCCC2)c1", "Endpoint": "inhibition", "Meas Value": 23.1}
{"Compound": "CCOc1cc(C2/C(=C(/O)c3ccc(OC(C)C)cc3)C(=O)C(=O)N2CCCOC)ccc1O (centres undefined)", "Endpoint": "inhibition", "Meas Value": 14.8}
{"Compound": "O=C(NCCCN1CCN(Cc2ccccc2)CC1)C1CCN(c2nnc(-n3cccc3)s2)CC1", "Endpoint": "inhibition", "Meas Value": -72}
{"Compound": "CCOC(=O)C1CCN(CC(=O)c2c(C)[nH]c3ccccc23)CC1", "Endpoint": "inhibition", "Meas Value": 15.2}
{"Compound": "N#Cc1c(N)oc(-c2cccs2)c1-c1cccs1", "Endpoint": "inhibition", "Meas Value": 50.6}
{"Compound": "COCCNC(=S)c1ccc(OC)cc1", "Endpoint": "inhibition", "Meas Value": 4.95}

====

# Experiment Notes: blockers of RIG-like receptor reporter activation – cell-based, Sendai virus stimulus, luciferase, 10K MLSCN set, TLR/RLR signaling modifier project, primary screen (AID 602276);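 note: firefly luciferase from ISG56 promoter only with Renilla not read in this screen; 0% = Sendai virus plus DMSO and 100% = medium plus DMSO without virus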
# Conditions Used: HEK293 RL24 IRF3 luciferase reporter, at 10 µM, stronger effect = higher value
Readings of inhibition for the listed compounds

{"Compound": "COc1ccc(OC)c(NC(=O)CS(=O)(=O)c2ccccc2)c1", "inhibition, %": -3.16}
{"Compound": "O=C(O)C1CC(=O)N(Cc2ccccc2)C1 (stereo unspecified)", "inhibition, %": 16.7}
{"Compound": "O=C(Nc1cccnc1N1CCOCC1)c1ccco1", "inhibition, %": 10.9}
{"Compound": "Cc1cc(C)cc(NC(=O)CN(C)S(=O)(=O)c2cnc[nH]2)c1", "inhibition, %": 1.14}
{"Compound": "CC(C)(C)C1CCc2c(sc3c2C(=O)NC(c2ccco2)N3)C1 (stereo unspecified)", "inhibition, %": -39.4}
{"Compound": "O=S(CC(O)COCc1ccc(Cl)cc1)c1ccccn1 (stereo unspecified)", "inhibition, %": 18.9}
{"Compound": "CCCC(OC(=O)CN1C(=O)COc2ccccc21)C(=O)NC1CCCC1 (stereo unspecified)", "inhibition, %": 20.6}
{"Compound": "CC1(C)OC(=O)C(=CNc2ccccc2)C(=O)O1", "inhibition, %": -10}
{"Compound": "O=C(Cn1c(=O)[nH]c2ccsc2c1=O)N1CCN(c2ccc(F)cc2)CC1", "inhibition, %": 15.1}
{"Compound": "c1ccc(CCc2nn3c(Cn4cnc5ccccc54)nnc3s2)cc1", "inhibition, %": 14.9}
{"Compound": "O=C(CN(Cc1ccc(F)cc1)C(=O)Cn1nnc2ccccc21)NCC1CCCO1 (stereo unspecified)", "inhibition, %": 13.2}

====

Readings of slope for the listed compounds
# Tested On: Alpha-2C adrenergic receptor (Homo sapiens) (UniProt P18825)
# Sequence (P18825 whole entry, looked up): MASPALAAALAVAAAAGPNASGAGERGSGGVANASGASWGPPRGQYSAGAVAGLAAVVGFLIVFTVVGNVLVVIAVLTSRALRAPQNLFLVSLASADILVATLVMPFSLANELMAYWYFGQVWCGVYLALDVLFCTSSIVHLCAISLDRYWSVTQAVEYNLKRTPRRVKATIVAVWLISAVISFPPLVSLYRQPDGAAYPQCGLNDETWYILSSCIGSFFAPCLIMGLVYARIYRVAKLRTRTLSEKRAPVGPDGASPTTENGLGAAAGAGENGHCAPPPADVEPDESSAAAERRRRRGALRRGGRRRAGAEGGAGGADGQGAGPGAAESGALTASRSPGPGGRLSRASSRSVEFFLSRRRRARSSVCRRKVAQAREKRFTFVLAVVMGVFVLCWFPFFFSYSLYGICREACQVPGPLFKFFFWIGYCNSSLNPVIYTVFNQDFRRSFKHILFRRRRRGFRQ
# Experiment Notes: compounds altering alpha2C-coupled GIRK flux – cell-based, HEK293 alpha2C/GIRK1/2, thallium flux, primary screen (AID 624);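 note: slope of fluorescence ratio to pre-addition baseline per second over 15 to 24 s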
# Conditions Used: thallium flux BTC fluorescence, at 10 µM, actives lie on both sides

{"Compound": "CC(NC(=O)c1ccc2c(c1)OCO2)C(c1cccs1)N1CCOCC1 (stereo unspecified)", "Tested On": "Alpha-2C adrenergic receptor (Homo sapiens) (UniProt P18825)", "slope": 0.00632}
{"Compound": "COC(=O)Cn1c(=NC(=O)CSCC(=O)Nc2cc(C)on2)sc2ccccc21", "Tested On": "Alpha-2C adrenergic receptor (Homo sapiens) (UniProt P18825)", "slope": 0.00506}
{"Compound": "Cc1nnc(NC(=O)CCC(=O)N2CCC(C)CC2)s1", "Tested On": "Alpha-2C adrenergic receptor (Homo sapiens) (UniProt P18825)", "slope": 0.0059}
{"Compound": "COCCOC(=O)c1cc(C(=O)c2cc(F)ccc2O)coc1=N", "Tested On": "Alpha-2C adrenergic receptor (Homo sapiens) (UniProt P18825)", "slope": 0.00549}
{"Compound": "CCOC(=O)c1[nH]c2ccc(C)cc2c1NC(=O)CN1CCCCC1", "Tested On": "Alpha-2C adrenergic receptor (Homo sapiens) (UniProt P18825)", "slope": 0.00444}
{"Compound": "Cc1ccc(NC(=O)c2ccco2)c(NC(=O)CN2C(=O)c3ccccc3C2=O)c1", "Tested On": "Alpha-2C adrenergic receptor (Homo sapiens) (UniProt P18825)", "slope": 0.00456}

====

Readings of cell count for the listed compounds
# Experiment Notes: inhibitors of TNFa-induced NFkB p65 translocation, primary screen, imaging, HUVEC, MLSMR starter and 10KST1 sets (AID 438);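 note: compound added about 3h40 before a 20 min TNFalpha stimulation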
# Conditions Used: HUVEC TNFa-induced p65 nuclear translocation; measured here: nuclei count (cytotoxicity indicator), at 2.08 µM

{"Compound": "CC1(C)CC(=O)C(C=NC(CCC(N)=O)C(=O)O)=C(O)C1 (stereo unspecified)", "cell count": 520}
{"Compound": "O=C(NS(=O)(=O)c1ccc(NC(=O)C2CCCO2)cc1)c1ccccc1 (stereo unspecified)", "cell count": 577}
{"Compound": "Cc1cc(C)c(S(=O)(=O)N(C)CC(N)=O)c(C)c1", "cell count": 320}
{"Compound": "Cc1nc2ncnn2c(N2CCC(C(=O)NCC3CCCO3)CC2)c1Cc1ccccc1 (stereo unspecified)", "cell count": 642}
{"Compound": "O=C(OCCN=C1NS(=O)(=O)c2ccccc21)C1CC(=O)N(c2ccc(Cl)cc2)C1 (stereo unspecified)", "cell count": 354}
{"Compound": "Cc1c(Cl)cccc1NC(=O)CCN1CCCCCC1", "cell count": 221}
{"Compound": "COC(=O)c1[nH]c2cc(OC)ccc2c1NC(=O)CCN1CCCCC1", "cell count": 290}
{"Compound": "Cc1ccc(Cn2c(C(=O)NCCCN3CCOCC3)cc3sccc32)cc1", "cell count": 765}
{"Compound": "O=C(Nc1ccc2c(c1)C(=O)N(C1CCCCC1)C2=O)C1CCCO1 (stereo unspecified)", "cell count": 269}
{"Compound": "CCCN1CCN(C(=O)c2cn(CC(C)C)c(=O)c3cc(OC)c(OC)cc23)CC1", "cell count": 566}
{"Compound": "Cc1nnc(NC(=O)CCC(=O)N2CCC(C)CC2)s1", "cell count": 355}
